# EXPERIMENTAL TARGET: Angiotensin-converting enzyme (Bos taurus) (UniProt P12820)
# Sequence (P12820 whole entry, looked up): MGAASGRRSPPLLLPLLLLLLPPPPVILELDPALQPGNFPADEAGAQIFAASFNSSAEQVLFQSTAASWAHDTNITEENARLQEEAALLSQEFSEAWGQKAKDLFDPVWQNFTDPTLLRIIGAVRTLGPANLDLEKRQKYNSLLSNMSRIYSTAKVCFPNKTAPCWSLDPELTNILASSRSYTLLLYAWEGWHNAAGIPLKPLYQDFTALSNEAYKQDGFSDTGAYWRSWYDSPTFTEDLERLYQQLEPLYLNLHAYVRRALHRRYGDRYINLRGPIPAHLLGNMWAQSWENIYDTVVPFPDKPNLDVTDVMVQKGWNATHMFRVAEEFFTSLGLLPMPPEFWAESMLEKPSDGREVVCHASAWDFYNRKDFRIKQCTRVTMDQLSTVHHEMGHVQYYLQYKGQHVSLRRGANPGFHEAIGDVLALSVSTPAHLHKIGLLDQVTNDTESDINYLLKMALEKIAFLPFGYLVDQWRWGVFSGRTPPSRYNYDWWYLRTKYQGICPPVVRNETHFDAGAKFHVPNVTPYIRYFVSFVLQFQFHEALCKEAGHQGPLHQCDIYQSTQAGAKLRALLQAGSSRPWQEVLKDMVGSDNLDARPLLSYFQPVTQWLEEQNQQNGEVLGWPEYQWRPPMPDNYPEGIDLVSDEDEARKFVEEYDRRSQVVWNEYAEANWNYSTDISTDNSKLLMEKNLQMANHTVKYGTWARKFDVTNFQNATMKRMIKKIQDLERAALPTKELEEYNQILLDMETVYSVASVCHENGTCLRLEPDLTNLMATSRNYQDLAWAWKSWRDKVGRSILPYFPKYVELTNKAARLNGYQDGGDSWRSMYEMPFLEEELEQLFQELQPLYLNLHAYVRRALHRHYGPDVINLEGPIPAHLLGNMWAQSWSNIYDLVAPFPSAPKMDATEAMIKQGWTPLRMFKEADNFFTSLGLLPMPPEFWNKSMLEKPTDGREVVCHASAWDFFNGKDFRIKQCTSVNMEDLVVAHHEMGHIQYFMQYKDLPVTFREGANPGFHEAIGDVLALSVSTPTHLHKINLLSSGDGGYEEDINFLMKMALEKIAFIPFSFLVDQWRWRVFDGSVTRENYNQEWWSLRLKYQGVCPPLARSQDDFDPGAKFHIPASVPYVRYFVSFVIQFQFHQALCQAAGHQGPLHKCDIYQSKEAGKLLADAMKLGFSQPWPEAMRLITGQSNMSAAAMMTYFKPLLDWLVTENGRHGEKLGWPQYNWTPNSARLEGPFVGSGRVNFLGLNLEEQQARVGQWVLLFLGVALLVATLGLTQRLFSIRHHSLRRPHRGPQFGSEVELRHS
pIC50: −log10 of the molar value.
MEASUREMENT TYPE: pIC50

{"COMPOUND": "CC(=O)SCC(C)C(=O)NCc1ccccc1 (stereo unspecified)", "EXPERIMENTAL RESULT": 3.30}
